# Experiment Description: PK studies: plasma exposure and pharmacokinetic parameters after i.v., oral and i.p. administration
# Type: in vivo, C57BL/6 mice
# Study Conditions: C57BL/6, intravenous, 5 mpk; mouse, plasma clearance
# Procedure: C57BL/6 mice were used to evaluate plasma exposure and pharmacokinetic parameters after intravenous, oral and intraperitoneal administration (5, 10, 30 mpk). […] Analytical procedures: Plasma samples were extracted using Liquid Handling Robot MultiProbe Packard by protein precipitation with acetonitrile. […] The results are calculated using Analyst Software linear regression with 1/x*x weighting. The Assay Precision was calculated for the Quality Controls by Watson Lims database. […]
Quantity Kind: clearance

Q: Look up clearance: COc1nc2ccccc2cc1-c1cnc(C2CN(CC3CCOC3)CCN2C(=O)Cn2c(C(F)(F)F)nc3ccccc32)[nH]1 (stereo not shown)
Ans: 44.7 mL/min/kg

Numbers sourced from patent US10815222B2.
